Target: T1, Bzz1-1, P38822
T1 sequence (P38822 478-572, looked up): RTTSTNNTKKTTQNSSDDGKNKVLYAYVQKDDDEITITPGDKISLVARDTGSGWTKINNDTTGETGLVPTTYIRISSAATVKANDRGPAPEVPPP
Assay: SPOT array
Conditions: median of control spots 4446
Quick reference: SPOT intensity of the listed items.
Measure Name: SPOT intensity

binder=TKRKRPARLIFYDSK recorded_measurement=0
binder=RSRRSSFAYPQQVAI recorded_measurement=1
binder=IPSRPAPKPPSSASA recorded_measurement=6
binder=GDHPKGPPPPPPPPD recorded_measurement=331
binder=AKDLIVPRRPEWNEG recorded_measurement=2630
binder=NSMRPPLLIPAATTK recorded_measurement=0
binder=DLFKPLPEPPTELGR recorded_measurement=0
binder=NNNKMRPHLPPLSSG recorded_measurement=1
binder=APKHAPPPVPNETDN recorded_measurement=0
binder=LRIKRKPVQTFFEFI recorded_measurement=0
binder=LPPPPPPPPPPPLPQ recorded_measurement=3
binder=RRRDFGAPANKRPRR recorded_measurement=3
binder=NFLRLLIGLPSQNEL recorded_measurement=2
binder=RRASLFPRDPKRLRP recorded_measurement=1
binder=NRLRKRLNLPSEISI recorded_measurement=6
binder=NMLKKKPLKKPLKRF recorded_measurement=0
binder=FLIKFTPKFPQSIDH recorded_measurement=0
binder=PSRRAPLQLPQLVNK recorded_measurement=0
binder=PKMLPIPSKPTLFDL recorded_measurement=0
binder=QHQQRQPKRPKRYSL recorded_measurement=0
binder=VQKRKLPLPGSIASA recorded_measurement=0
binder=LYKRKPILLPDPKPL recorded_measurement=0
binder=VQPTAAPATPPRHIS recorded_measurement=0
binder=LLRRTIPKRPFYHVL recorded_measurement=0
binder=TKPTPPPKPSHLKPK recorded_measurement=0
binder=AGKRRLPLVRFKASD recorded_measurement=0
binder=QTREPNEPPPPSPAM recorded_measurement=0
binder=IKKRNKIRLPSGSPE recorded_measurement=2
binder=NVLRKILEIPLHSFS recorded_measurement=0
binder=RSVKRPRRAPRPVVS recorded_measurement=0
